Data origin, for the record: patent US20120114652A1

target: human PAI-1, active, wild-type, non-glycosylated (E. coli-derived) (human, UniProt P05121 24-402); assay: cell-based or functional assay
Sequence (P05121 24-402): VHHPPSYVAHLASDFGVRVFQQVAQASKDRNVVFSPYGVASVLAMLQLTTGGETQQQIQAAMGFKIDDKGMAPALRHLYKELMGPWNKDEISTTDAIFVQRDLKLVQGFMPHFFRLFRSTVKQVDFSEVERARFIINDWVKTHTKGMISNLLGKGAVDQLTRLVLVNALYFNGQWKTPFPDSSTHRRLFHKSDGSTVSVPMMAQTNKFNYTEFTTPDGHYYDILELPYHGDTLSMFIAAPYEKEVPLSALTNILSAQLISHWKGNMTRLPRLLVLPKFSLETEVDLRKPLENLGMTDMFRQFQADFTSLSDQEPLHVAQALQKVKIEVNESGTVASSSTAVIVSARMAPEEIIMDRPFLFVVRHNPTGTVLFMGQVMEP
The entries below are paired with their reported IC50 chromogenic.

Sample records with IC50 chromogenic:
Antibody 01, IgG1, not germlined (antibody, V domains shown) VH: QVQLVQSGAEVKKPGSSVKVSCKASGGTFSSYAISWVRQAPGQGLEWMGGIIPIFGTANYAQKFQGRVTITADESTSTAYMELSSLRSEDTAVYYCAREKRQWLEGHFDYWGRGTLVTVSS VL: DIQMTQSPSTLSASVGDRVTITCRASEGIYRSLAWYQQKPGKAPKLLIYKASSLASGVPSRFSGSGSGTEFTLTISSLQPDDFATYYCQQYSNYPLTFGGGTKVEIK ... 1.5 nM
Antibody 18, scFv (scFv, V domains shown) VH: QVQLQQSGAEVKKPGSSVKVSCKASGGTFSSYAISWVRQAPGQGLEWMGGIIPTFGTANYAQKLQGRVTITADESTSTAYMELSGLRSEDTAVYYCAREKRQWLEGHFDYWGRGTPVTVSS VL: DIQMTQSPSFLSASIGDRVTITCRASEGIYHALAWYQQKPGKAPKLLIYRASSLASGAPSRFSGSGSGTDFTLTISSLQPDDFATYYCQQYSNYPLTFGGGTKLEIK ... 1.3 nM
Antibody 24, scFv (scFv, V domains shown) VH: QVQLQQSGAEVKKPGSSVKVSCKASGGTFSSYAISWVRQAPGQGLEWMGGIIPTFVTANYAQKFQGRVSITADESTSTAYMELSGLRSEDTAVYYCAREKRQWLEGHFDYWGRGTPVTVSS VL: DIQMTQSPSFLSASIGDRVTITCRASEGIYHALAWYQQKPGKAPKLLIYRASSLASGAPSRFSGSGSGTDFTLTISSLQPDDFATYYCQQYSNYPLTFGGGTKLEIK ... 3.2 nM

Now look at this entry.
Value of IC50 chromogenic reported for the binder Antibody 06, scFv (scFv, V domains shown) VH: QVQLQQSGAEVKKPGSSVKVSCKASGGTFSSYAISWVRQAPGQGLEWMGGIIPTFGTANYAQKFQGRVTITADESTSTAYMELSGLRSEDTAVYYCAREKRQWLEGHFDYWGRGTPVTVSS VL: DIQMTQSPSFLSASIGDRVTITCRASEGIYHELAWYQQKPGKAPKLLIYRASSLASGAPSRFSGSGSGTDFTLTISSLQPDDFATYYCQQYSNYPLTFGRGTKLEIK is 74.6 nM
